target: T1, human glucagon receptor (human, UniProt P47871 26-477); assay: SPA displacement of [125I]-glucagon from human glucagon receptor BHK membranes
T1 construct: whole, on cells; reporter assay on whole cells
T1 sequence (P47871 26-477): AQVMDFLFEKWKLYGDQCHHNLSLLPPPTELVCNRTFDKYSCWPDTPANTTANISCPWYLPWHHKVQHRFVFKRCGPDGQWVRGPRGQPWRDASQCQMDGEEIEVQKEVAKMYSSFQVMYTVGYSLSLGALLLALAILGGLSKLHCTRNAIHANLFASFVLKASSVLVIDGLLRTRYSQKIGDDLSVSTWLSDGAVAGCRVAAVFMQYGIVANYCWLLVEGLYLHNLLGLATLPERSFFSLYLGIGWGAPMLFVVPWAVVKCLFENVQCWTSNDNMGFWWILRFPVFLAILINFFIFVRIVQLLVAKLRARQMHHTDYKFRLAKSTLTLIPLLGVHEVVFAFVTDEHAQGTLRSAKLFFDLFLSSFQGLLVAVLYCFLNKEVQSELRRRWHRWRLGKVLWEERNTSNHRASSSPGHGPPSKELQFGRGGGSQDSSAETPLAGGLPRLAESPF
*1 amine or outer side, *2 acyl side, *3 side chain or, on linkers, in order; H or OH if unused. Where no end group is shown, it is not given here. Side-chain parts run from the residue outwards. [ ]: non-standard residue; d: D form. The star is where a group is joined. C18 diacid = O=C(O)CCCCCCCCCCCCCCCCC(=O)*; γGlu = O=C(O)[C@H](CCC(=O)[*:2])N[*:1]; Desaminohistidyl = O=C(CCc1c[nH]cn1)*; Ac4c = NC1(C(=O)O)CCC1; AEEA = NCCOCCOCC(=O)O; Aib = CC(C)(N)C(=O)O
For each of the binders below, state its pIC50.
Numbers only, as −log10 of the molar value.

>>> readout_number("[Desaminohistidyl][Ac4c]HGTFTSDVSKYLEEQAAREFIAWLLKK([Gly-Ser-Glu-Gly-Ser-γGlu-γGlu-C18 diacid])-NH2")
7.36
>>> readout_number("[Desaminohistidyl][Aib]HGTFTSDVSKYLEEQAAREFIAWLIK([Ado-Ado-γGlu-γGlu-C18 diacid])T-NH2")
7.93
>>> readout_number("XXHGTFTSDYSKYLERQAAREFIAWLLKK (Imp (desamino-His) at 7; Acb at 8; Lys35 N-epsilon acylated with 17-carboxyheptadecanoyl-γGlu-γGlu-Ado-γGlu-Ado-γGlu-Ado-γGlu-; C-terminal amide (GLP-1(7-37) numbering))")
7.93
>>> readout_number("[Desaminohistidyl][Aib]HGTFTSDVSRYLEGRAAREFIAWLLK([γGlu-γGlu-AEEA-γGlu-γGlu-C18 diacid])GAG")
7.73

*Q* Could you share which pIC50 value was measured for [Desaminohistidyl][Aib]HGTFTSDVSKYLEEQAAREFIAWLLK([Ado-Ado-γGlu-γGlu-C18 diacid])T-NH2 ?
*A* 8.37
